- Test system: U2OS
- protocolNotes: Incucyte cell viability with U2OS; also: unitless GR value; below 1 slowed growth and below 0 cell loss
- Assay type: toxicity, cell-based
- details: human, 6 h, 10 µM, compound concentration 10 uM, replicate number 2
measuredProperty: Growth Rate

Given NC(=O)c1cc2c(-c3ccc(C(=O)NCc4ccnc(Cl)c4)s3)cccc2s1 , state its recorded Growth Rate. -0.51

Given Cc1cc(C2CCCNC2)ccc1Nc1ncc(Br)c(NCc2cccc3c2C(C)(C)C(=O)N3)n1 (centres undefined) , state its recorded Growth Rate. 0.86

Given C=C(F)C(=O)N1CCN(c2nc(OC[C@@H]3CCCN3C)nc3c2CCN(c2cccc4cccc(Cl)c24)C3)C[C@@H]1CC#N , state its recorded Growth Rate. 0.32

Given Cc1cc(SCc2sc(-c3ccc(C(F)(F)F)cc3)nc2C)ccc1OCC(=O)O , state its recorded Growth Rate. 0.95

Given Nc1ncc2c(n1)-c1c([nH]c3ccc(C4CC4)cc13)CCCC2 , state its recorded Growth Rate. -0.85

Given COc1cc(F)ccc1-c1cc(Nc2cc(CS(C)(=N)=O)ccn2)ncc1F (centres undefined) , state its recorded Growth Rate. 0.69

Given CO[C@H](C)CN1CC[C@]2(C)c3cccc(O)c3C[C@H]1C2(C)C.Cl , state its recorded Growth Rate. 0.57

Given Cc1[nH]c2c(N3CCCCC3)c(-c3ccccc3)nn2c(=O)c1-c1ccc(O)cc1 , state its recorded Growth Rate. 0.87

Given CCN1CCN(Cc2ccc(C(=O)Nc3ccc(C)c(Oc4ccc5c(c4)CC(=O)N5)c3)cc2C(F)(F)F)CC1.Cl.Cl , state its recorded Growth Rate. -0.37

====

- Test system: Fibroblast
- protocolNotes: Incucyte cell viability with human fibroblast; also: unitless GR value; below 1 slowed growth and below 0 cell loss
- Format: toxicity, cell-based
- details: 0 h, 10 µM, compound concentration 10 uM, replicate number 1
measuredProperty: Growth Rate
Form rule: numeric answer, no unit written next to it.

So what Growth Rate did O=c1cc(-c2ccccc2)oc2c1ccc1ccccc12 [ALPHA-NAPHTHOFLAVONE] get with Fibroblast? 0.97

So what Growth Rate did O=C1NC(c2cccc([N+](=O)[O-])c2)=CCN1c1ccccc1O [ICILLIN] get with Fibroblast? 0.99

So what Growth Rate did COC(=O)c1ccc2c(c1)NC(=O)/C2=C(\Nc1ccc(-c2nccn2C)cc1)c1ccccc1 get with Fibroblast? -1

So what Growth Rate did Cc1cc(=O)oc2cc(NC(=O)[C@H](Cc3ccc(I)cc3)NC(=O)[C@H]3N[C@@H]4CC[C@H]3C4)ccc12.O=C(O)C(F)(F)F get with Fibroblast? -1

So what Growth Rate did Cl.N/C(=N\C(=O)c1nc(Cl)c(N)nc1N)NCc1ccccc1 [BENZAMIL HYDROCHLORIDE] get with Fibroblast? 0.69

So what Growth Rate did CNc1nc(-c2cc(C(=O)N3CCN(Cc4ccc(Cl)cc4)CC3)c(Cl)cn2)cs1 get with Fibroblast? -1

So what Growth Rate did COc1cc(C(N)=O)ccc1Nc1ncc2c(n1)N(CCC(C)C)[C@H](C)C(=O)N2C get with Fibroblast? -0.99

So what Growth Rate did COc1cc2ncnc(Nc3cccc(O)c3)c2cc1OC get with Fibroblast? -1

So what Growth Rate did O=C(Nc1ccc(OC(F)(F)Cl)cc1)c1cnc(N2CC[C@@H](O)C2)c(-c2ccn[nH]2)c1 [ASCIMINIB] get with Fibroblast? -1

====

- Test system: Fibroblast
- protocolNotes: Incucyte cell viability with human fibroblast; also: unitless GR value; below 1 slowed growth and below 0 cell loss
- Format: toxicity, cell-based
- details: 24 h, 10 µM, compound concentration 10 uM, replicate number 2
For each entry below, report its Growth Rate value.
Form rule: numeric answer, no unit written next to it.

Given Nc1nc2cc(-c3cc(Cl)ccc3Oc3cc(F)c(S(=O)(=O)Nc4ncns4)cc3F)ccc2[nH]1 , state its recorded Growth Rate. 0.9

Given Cn1c(=O)n(CCCO)c(=O)c2c1nc(Oc1cccc(OC(F)(F)F)c1)n2Cc1ccc(Cl)cc1 [ZERENCOTREP] , state its recorded Growth Rate. 0.54

Given COc1ccc(NC(=O)[C@@H]2C[C@H](C)CC[C@H]2C(C)C)cc1 [ACOLTREMON] , state its recorded Growth Rate. 0.67

Given Cc1nnsc1C(=O)Nc1ccc(-n2nc(C(F)(F)F)cc2C(F)(F)F)cc1 , state its recorded Growth Rate. 0.74

Given CCNc1ccc(-c2nn(-c3ccccc3C)c3c2C(C)Cc2nc(NC(=O)OC)sc2-3)cn1.O=C(O)C(F)(F)F (configuration not stated) , state its recorded Growth Rate. -0.06

Given CCOC(=O)/N=C(\N)c1ccc(OCc2cccc(COc3ccc(C(C)(C)c4ccc(OC(=O)OCC)cc4)cc3)c2)cc1 , state its recorded Growth Rate. 0.79

Given COc1ccc(CC(=O)NC(N/C(=N/C#N)Nc2cccc3ncccc23)C(C)(C)C)cc1OC (configuration not stated) , state its recorded Growth Rate. 0.59

Given CN(c1ccc(C(F)(F)F)cc1)S(=O)(=O)c1ccc(C(=O)Nc2nc(-c3ccccn3)cs2)cc1 , state its recorded Growth Rate. 0.82

Given COc1ccc(COc2ccc(Cc3cnc(N)nc3N)cc2OC)cc1 [GW632580X] , state its recorded Growth Rate. 0.57

Given CC(C)(C)OC(=O)CN(Cc1ccc(Cl)cc1)Cc1ccc([N+](=O)[O-])s1 [GSK-4112] , state its recorded Growth Rate. 0.19

Given CCc1cncnc1N1CCN(Cc2nc3cc(C(F)(F)F)ccc3[nH]2)CC1 , state its recorded Growth Rate. 0.93

Given O=C(O)Cc1cc(I)c(Oc2ccc(O)c(I)c2)c(I)c1 [TIRATRICOL] , state its recorded Growth Rate. 0.76

Given COc1cccc(-c2c(C)c(Cc3c(F)cccc3C(F)(F)F)c3n(c2=O)[C@@H]([C@@H](N)c2ccccc2)CS3)c1F , state its recorded Growth Rate. 0.87

Given CN(C)c1ccc(-c2cc3ncccc3c(OCCCCO)n2)cc1.O=C(O)C(F)(F)F , state its recorded Growth Rate. 0.65

Given Cc1ccc2c(NS(=O)(=O)c3ccccc3Cl)cccc2c1Oc1ncccc1-c1ccnc(N[C@H]2CCCNC2)n1.Cl , state its recorded Growth Rate. 0.49

Given Cc1noc(C)c1-c1cnc2c(-c3ccc(C(=O)O)cc3)cn([C@@H](C)c3ccccn3)c2c1 [PLX-51107] , state its recorded Growth Rate. 0.49

Given Cc1c(-c2c(F)cc(C(N)=O)c3[nH]c4c(c23)CC[C@H](C(C)(C)O)C4)cccc1-n1c(=O)c2cccc(F)c2n(C)c1=O [BMS-986142] , state its recorded Growth Rate. 1

====

For each entry below, report its Growth Rate value.
- Test system: Fibroblast
- protocolNotes: Incucyte cell viability with human fibroblast; also: unitless GR value; below 1 slowed growth and below 0 cell loss
- Assay type: toxicity, cell-based
- details: 24 h, 10 µM, compound concentration 10 uM, replicate number 2
Form rule: numeric answer, no unit written next to it.

Given CN(C)C/C=C/C(=O)Nc1cccc(S(=O)(=O)N2CCC(NC(=O)c3n[nH]cc3NC(=O)c3c(Cl)cc(Cl)cc3Cl)CC2)c1 , state its recorded Growth Rate. -0.13

Given CNCc1ccc(-c2cc(-c3nc(-c4ccc(S(=O)(=O)C(C)C)cc4)cnc3N)on2)cc1 [BERZOSERTIB] , state its recorded Growth Rate. -0.29

Given C[C@@H]1C[C@H](C)CN(c2ncc(Cl)c(Nc3ccc4c(c3)cc(OC(C)(C)C(=O)O)c(=O)n4C)n2)C1 , state its recorded Growth Rate. 0.99

Given CCCCC[C@H](O)/C=C/[C@H]1[C@H](O)CC(=O)[C@@H]1CCCCCCC(=O)O [ALPROSTADIL] , state its recorded Growth Rate. 0.9

Given Cl.O=C1c2cccc3c2[C@H](CCC3)CN1[C@@H]1CN2CCC1CC2 [PALONOSETRON HYDROCHLORIDE] , state its recorded Growth Rate. 0.92

Given CC1(C)C[C@@H]1C(=O)N/C(=C\CCCCSC[C@H](N)C(=O)O)C(=O)O [CILASTATIN] , state its recorded Growth Rate. 0.83

Given CCCC(=O)C1CCN(c2ncnc3c2CN(C(=O)c2ccc(-c4ccccc4)cc2)CC3)CC1 , state its recorded Growth Rate. 0.9

Given CCCOc1cnc(CN/C=C2\C(=O)NC(=O)c3ccc(I)cc32)cc1O , state its recorded Growth Rate. 0.16

Given Cc1cc(-c2cnc(N)c3c(-c4ccc5scnc5c4)csc23)n(C)n1 , state its recorded Growth Rate. 0.92

Given CC(C)(O)CNC(=O)N1C(=O)N(c2cccc(C(F)(F)F)c2)C2=C(C(=O)CC2)[C@H]1c1ccc(C#N)cc1 , state its recorded Growth Rate. 0.97

Given COc1c(-c2cn(C3CCC(=O)NC3=O)nn2)csc1C(=O)N1CCCC1 (stereo unspecified) , state its recorded Growth Rate. 0.97

Given CCOC(=O)Nc1ccc2c(c1)N(C(=O)CN(CC)CC)c1ccccc1CC2 , state its recorded Growth Rate. 0.69

Given N[C@@H](CC(=O)O)Cn1nnc(-c2ccc(Oc3ncc(Cl)cc3F)cc2)n1 , state its recorded Growth Rate. 0.76

Given COc1ccc(S(=O)(=O)N2CCOCC2)cc1Nc1ccc2c(n1)N(C1CCN(C)CC1)[C@H](C)C(=O)N2C , state its recorded Growth Rate. 0.41

Given O=C(Cc1ccccc1[N+](=O)[O-])Nc1ccc(-c2ccc(C(O)(C(F)(F)F)C(F)(F)F)cc2F)cc1 , state its recorded Growth Rate. -0.14

Given CN[C@@H](C)C(=O)N[C@H](C(=O)N1CCC[C@H]1C(=O)N[C@H]1c2ccccc2C[C@H]1OCC#CC#CCO[C@@H]1Cc2ccccc2[C@@H]1NC(=O)[C@@H]1CCCN1C(=O)[C@@H](NC(=O)[C@H](C)NC)C1CCCCC1)C1CCCCC1 , state its recorded Growth Rate. 0.43
